Please respond with reported Activity for every item in the list.
# TEST TARGET: Muscarinic acetylcholine receptor M4 (Rattus norvegicus) (UniProt P08485)
# Sequence (P08485 whole entry): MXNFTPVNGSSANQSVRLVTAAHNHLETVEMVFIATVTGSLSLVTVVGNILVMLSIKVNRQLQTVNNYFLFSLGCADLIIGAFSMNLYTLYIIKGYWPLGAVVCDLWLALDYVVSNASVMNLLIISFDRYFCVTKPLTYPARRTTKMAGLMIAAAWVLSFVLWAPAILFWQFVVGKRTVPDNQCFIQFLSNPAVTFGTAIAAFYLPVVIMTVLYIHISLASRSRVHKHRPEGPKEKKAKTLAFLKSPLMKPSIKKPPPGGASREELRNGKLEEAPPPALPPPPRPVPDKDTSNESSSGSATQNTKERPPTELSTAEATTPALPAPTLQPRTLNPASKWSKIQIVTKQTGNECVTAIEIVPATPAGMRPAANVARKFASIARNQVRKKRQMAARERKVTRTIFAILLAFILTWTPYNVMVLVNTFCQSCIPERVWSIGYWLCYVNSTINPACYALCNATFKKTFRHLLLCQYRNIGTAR
# TEST: Percent inhibition against muscarinic acetylcholine receptor M4 from NG108-15 cell line
# Type: cell-based
# Parameters: concentration or dose not given beside the values
Give bare numbers, in %.

Entry CN(CC#CCN1CCCC1)C(=O)CCCNC(=O)OC(C)(C)C , Activity reported as 3.5

Data point: CN(CC#CCN1CCCC1)C(=O)CCCCN.O=C(O)C(F)(F)F.O=C(O)C(F)(F)F ; Activity = 15.8

Moving on to another compound below.
Consider CN(CC#CCN1CCCC1)C(=O)CNC(=O)OC(C)(C)C . Its measured Activity is 7
